procedure.details: Dissolution profiles of flupirtine acid addition salts in ethanol (compacted substance)
Assay type: physicochemical
assay.conditions: 10 min; 100 mg compacted, 1000 ml ethanol, 37° C., basket 50 UpM
quantity.measured: Amount of substance dissolved (mg)
State the answer as a number, implicitly in mg.

// solved cases for Amount of substance dissolved follow
{"columns": ["molecule", "Amount of substance dissolved, mg"],
 "data": [
  ["CCOC(=O)Nc1ccc(NCc2ccc(F)cc2)nc1N.O=C(O)C(F)(F)F [Flupirtine triflutate, Flupirtine Triflutate]", 115.1],
  ["CCOC(=O)Nc1ccc(NCc2ccc(F)cc2)nc1N.O=C(O)/C=C\\C(=O)O [Flupirtine maleate A, Flupirtine Maleate Form A, reference compound]", 4.1],
  ["CCOC(=O)Nc1ccc(NCc2ccc(F)cc2)nc1N [Flupirtine propionate]", 109.4]
]}

Problem: Reported Amount of substance dissolved, molecule CC(=O)O.CCOC(=O)Nc1ccc(NCc2ccc(F)cc2)nc1N [Flupirtine acetate] : ____
Solution: 108.3

Problem: Would you kindly share the measured Amount of substance dissolved for CCOC(=O)Nc1ccc(NCc2ccc(F)cc2)nc1N.O=C(O)/C=C\C(=O)O [Flupirtine maleate B, Flupirtine Maleate Form B, reference compound] ?
Solution: 6.3
